Every entry's value here was drawn from patent US20230065158A1.

Test system: H526 cells
assay-text: Cell Counting Kit-8 cytotoxicity, H526
settings: Homo sapiens, NCI-H526, 72 h, read-out: Cytotoxicity IC50, H526
metric: IC50 (nM)
Express your answer in nM, writing the number without its unit.

Determine its reported IC50: COc1cc([C@@H]2c3cc4c(cc3[C@@H](O[C@@H]3O[C@@H]5CO[C@@H](C)O[C@H]5[C@H](O)[C@H]3O)[C@H]3COC(=O)[C@H]23)OCO4)cc(OC)c1O [Etoposide] 2800

---

Tested on: H69 cells
assay-text: Cell Counting Kit-8 cytotoxicity and drug combination, H69
settings: human, 72 h
metric: pIC50
Keep in mind that pIC50 stands for -log10 of concentration in molar terms.

Determine its reported pIC50: C[NH+]1CCN(C(=O)C2C(C(=O)O)[C@H]3CC[C@@H]2O3)CC1 (stereo in doubt) [LB-100] 4.65

---

System: H146 cells
assay-text: Cell Counting Kit-8 cytotoxicity, H146
settings: read-out: Cytotoxicity IC50; H146; 72 hours
metric: IC50 (µM)
Express your answer in µM, writing the number without its unit.

Determine its reported IC50: N.N.O=C([O-])C1(C(=O)[O-])CCC1.[Pt+2] [Carboplatin, reference compound] 8.3
